Below, each of the molecules is paired with its reported IC50 value.
Molecular target: Recombinant human HDAC6 (Homo sapiens, UniProt Q9UBN7)
Construct: full length, MW=159 kDa; GST (N); host or cells: Sf9 insect cells (baculovirus)
Sequence (Q9UBN7 whole entry): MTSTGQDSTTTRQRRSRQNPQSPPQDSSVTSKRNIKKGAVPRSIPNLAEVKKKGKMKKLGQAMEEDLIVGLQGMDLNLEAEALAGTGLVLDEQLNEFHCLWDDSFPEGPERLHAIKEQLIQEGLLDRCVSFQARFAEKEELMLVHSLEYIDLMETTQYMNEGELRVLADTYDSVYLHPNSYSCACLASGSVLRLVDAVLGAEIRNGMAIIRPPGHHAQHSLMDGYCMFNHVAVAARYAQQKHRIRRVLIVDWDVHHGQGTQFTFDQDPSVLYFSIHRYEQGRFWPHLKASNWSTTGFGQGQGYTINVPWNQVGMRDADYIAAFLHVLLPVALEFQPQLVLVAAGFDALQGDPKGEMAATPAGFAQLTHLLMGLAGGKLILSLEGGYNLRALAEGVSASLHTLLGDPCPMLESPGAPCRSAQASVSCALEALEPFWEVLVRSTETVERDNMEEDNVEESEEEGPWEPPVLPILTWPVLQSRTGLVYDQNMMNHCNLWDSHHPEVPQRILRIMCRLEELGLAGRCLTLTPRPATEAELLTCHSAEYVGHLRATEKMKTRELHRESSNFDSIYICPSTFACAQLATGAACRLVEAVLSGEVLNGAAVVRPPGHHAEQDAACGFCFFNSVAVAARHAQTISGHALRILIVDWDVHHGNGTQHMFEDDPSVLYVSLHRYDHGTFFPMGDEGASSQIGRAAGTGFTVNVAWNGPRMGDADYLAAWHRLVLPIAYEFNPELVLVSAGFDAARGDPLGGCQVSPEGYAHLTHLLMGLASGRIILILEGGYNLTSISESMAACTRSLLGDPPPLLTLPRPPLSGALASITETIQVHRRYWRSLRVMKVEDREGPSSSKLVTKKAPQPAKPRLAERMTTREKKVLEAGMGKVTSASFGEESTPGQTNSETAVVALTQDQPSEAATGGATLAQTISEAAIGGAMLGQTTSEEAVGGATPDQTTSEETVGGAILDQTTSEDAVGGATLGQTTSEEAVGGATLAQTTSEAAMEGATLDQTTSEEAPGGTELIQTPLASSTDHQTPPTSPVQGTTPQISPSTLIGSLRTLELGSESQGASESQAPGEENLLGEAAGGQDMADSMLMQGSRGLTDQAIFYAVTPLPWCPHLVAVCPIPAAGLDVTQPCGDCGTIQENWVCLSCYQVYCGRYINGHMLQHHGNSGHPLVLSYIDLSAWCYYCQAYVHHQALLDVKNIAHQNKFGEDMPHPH
Assay: HDAC6 biochemical assay, AMC-labeled peptide substrate
Conditions: HDAC6; read-out: HDAC Isoform IC50 (nM) 6
Description: Activity against all zinc-dependent HDACs 1 to 11 was assessed by using an acetylated AMC-labeled peptide substrate. The substrate RHKK(Ac)AMC was used for HDAC1, HDAC2, HDAC3, HDAC6 and HDAC10; the substrate used for HDAC8 was RHK(Ac)K(Ac)AMC. Activity against the class IIa HDACs (HDAC4, 5, 7, 9) and HDAC11 was determined using a class IIa-specific substrate, BOC-Lys(trifluoroacetyl)-AMC (“Trifluoroacetyl Lysine”; see Lahm et al, 2007, PNAS, 104, 17335-17340). […]

# Molecule, IC50
records = [
    ("FC(F)(F)c1nc(-c2ccc(CN(c3cccnc3)c3cnccn3)s2)no1 [Example AO]", "≤ 500 nM"),
    ("COc1cncnc1N(Cc1ccc(-c2noc(C(F)(F)F)n2)s1)c1cnccn1 [Example CP]", "≤ 1000 nM"),
    ("COc1cncc(N(Cc2ccc(-c3noc(C(F)(F)F)n3)s2)c2cnccn2)n1 [Example BQ]", "≤ 500 nM"),
    ("O=C(c1cnnc(N(Cc2ccc(-c3noc(C(F)(F)F)n3)s2)c2cnccn2)c1)N1CC2CCC(C1)O2 [Example GA]", "≤ 500 nM"),
    ("FC(F)(F)c1nc(-c2ccc(CN(c3cnccn3)c3cc(N4CCOCC4)ncn3)s2)no1 [Example CL]", "≤ 10000 nM"),
    ("O=C(c1ccc(N(Cc2ccc(-c3noc(C(F)(F)F)n3)s2)c2cnccn2)nn1)N1CCCCC1 [Example FG]", "≤ 500 nM"),
    ("FC(F)(F)c1nc(-c2ccc(CN(c3cnccn3)c3ccnc4ccnn34)s2)no1 [Example CF]", "≤ 10000 nM"),
    ("CN(C)c1cc(N(Cc2ccc(-c3noc(C(F)(F)F)n3)s2)c2cnccn2)ncn1 [Example CI]", "≤ 10000 nM"),
    ("O=C(c1ccc(N(Cc2ccc(-c3noc(C(F)(F)F)n3)s2)c2cnccn2)nn1)N1CCC1 [Example FF]", "≤ 500 nM"),
    ("Cc1cnc(N(Cc2ccc(-c3noc(C(F)(F)F)n3)s2)c2cnccn2)cn1 [Example BH]", "≤ 500 nM"),
    ("O=C(c1ccc(N(Cc2ccc(-c3noc(C(F)(F)F)n3)s2)c2cnccn2)nn1)N1CC(O)(C(F)(F)F)C1 [Example FK]", "≤ 500 nM"),
    ("NC(=O)c1ccc(N(Cc2ccc(-c3noc(C(F)(F)F)n3)s2)c2cnccn2)nn1 [Example DQ]", "≤ 500 nM"),
    ("Cc1cncc(N(Cc2ccc(-c3noc(C(F)(F)F)n3)s2)c2cc(C(F)(F)F)cnn2)n1 [Example EM]", "≤ 1000 nM"),
    ("FC(F)(F)c1ccnc(N(Cc2ccc(-c3noc(C(F)(F)F)n3)s2)c2cnccn2)c1 [Example AI]", "≤ 10000 nM"),
    ("FC(F)(F)c1nc(-c2ccc(CN(c3cnccn3)c3cnsn3)s2)no1 [Example S]", "≤ 10000 nM"),
    ("O=C(c1cnnc(N(Cc2ccc(-c3noc(C(F)(F)F)n3)s2)c2cnccn2)c1)N1CC[S+]([O-])CC1 [Example FU]", "≤ 500 nM"),
]

Measured values drawn from patent US20210038607A1 for this set.
